System: Acinetobacter baumannii
Assay type: cell-based
Method: To evaluate the potency and spectrum of the compounds, susceptibility testing was performed against up to nine strains of each of the Gram negative pathogens, Escherichia coli, Pseudomonas aeruginosa, Klebsiella pneumoniae and Acinetobacter baumannii. The values in Table 2 are MIC (μg/mL) against strains of E. coli, K. pneumoniae, P. aeruginosa and A. baumanii, including strains which show elevated MICs to Polymyxin. The values in Table 2A are MIC (μg/mL). […]
Bridge positions count the residues as written; N and C are the ends. Square brackets hold non-standard residues; d marks the D form. Peptide text beside a SMILES is read from it. * marks the point of attachment. X13 = NCC[C@H](OCc1ccc(Cl)cc1)C(=O)*; X26 = NCC[C@H](OCC1CCCCC1)C(=O)*; dCha = N[C@H](CC1CCCCC1)C(=O)O; X15 = NCCC(CC1CCCC1)C(=O)*; Dab = NCC[C@H](N)C(=O)O; Dap = NC[C@H](N)C(=O)O

| compound | tested-target | value-unit | relation | MIC A. baumanii ATCC BAA-747 |
| --- | --- | --- | --- | --- |
| CC(C)C[C@@H]1NC(=O)[C@@H](CC2CCCCC2)NC(=O)[C@H](CCN)NC(=O)[C@@H](NC(=O)[C@H](CCN)NC(=O)[C@@H](NC(=O)C(CCN)c2ccc(F)cc2)C(C)O)CCNC(=O)[C@H]([C@@H](C)O)NC(=O)[C@H](CCN)NC(=O)[C@H](CCN)NC1=O (single isomer, unassigned; isomer 2) | Acinetobacter baumannii | mg/L | = | 0.125 |
| CC(C)C[C@@H]1NC(=O)[C@@H](CC2CCCCC2)NC(=O)[C@H](CCN)NC(=O)[C@@H](NC(=O)[C@H](CN)NC(=O)[C@@H](NC(=O)CCC(N)c2ccccc2)[C@@H](C)O)CCNC(=O)[C@H]([C@@H](C)O)NC(=O)[C@H](CCN)NC(=O)[C@H](CCN)NC1=O (single isomer, unassigned; isomer 1) [Example 60] | Acinetobacter baumannii | mg/L | = | 0.5 |
| CC(C)CC(CN)C(=O)N[C@H](C(=O)N[C@@H](CN)C(=O)N[C@H]1CCNC(=O)[C@H]([C@@H](C)O)NC(=O)[C@H](CCN)NC(=O)[C@H](CCN)NC(=O)[C@H](CC(C)C)NC(=O)[C@@H](Cc2ccc(Br)cc2)NC(=O)[C@H](CCN)NC1=O)C(C)O (single isomer, unassigned; isomer 1) [Example 13] | Acinetobacter baumannii | mg/L | > | 8 |
| CC(C)C[C@@H]1NC(=O)[C@@H](CC2CCCCC2)NC(=O)[C@H](CCN)NC(=O)[C@@H](NC(=O)[C@H](CN)NC(=O)[C@@H](NC(=O)[C@H](CCN)OCc2ccc(Cl)cc2)[C@@H](C)O)CCNC(=O)[C@H]([C@@H](C)O)NC(=O)[C@H](CCN)NC(=O)[C@H](CCN)NC1=O [Example 74] (X13-T[Dap][Dab][Dab][dCha]L[Dab][Dab]T; lactam 3-C) | Acinetobacter baumannii | mg/L | = | 0.125 |
| CC(C)C[C@@H]1NC(=O)[C@@H](CC2CCCCC2)NC(=O)[C@H](CCN)NC(=O)[C@@H](NC(=O)[C@H](CN)NC(=O)[C@@H](NC(=O)[C@H](CCN)OCC2CCCCC2)[C@@H](C)O)CCNC(=O)[C@H]([C@@H](C)O)NC(=O)[C@H](CCN)NC(=O)[C@H](CCN)NC1=O [Example 84] (X26-T[Dap][Dab][Dab][dCha]L[Dab][Dab]T; lactam 3-C) | Acinetobacter baumannii | mg/L | = | 0.25 |
| CC(C)C[C@@H]1NC(=O)[C@@H](CC2CCCCC2)NC(=O)[C@H](CCN)NC(=O)[C@@H](NC(=O)[C@H](CCN)NC(=O)[C@@H](NC(=O)C(CCN)CC2CCCC2)[C@@H](C)O)CCNC(=O)[C@H]([C@@H](C)O)NC(=O)[C@H](CCN)NC(=O)[C@H](CCN)NC1=O (stereo partly drawn) [Example 83] (X15-T[Dab][Dab][Dab][dCha]L[Dab][Dab]T; lactam 3-C) | Acinetobacter baumannii | mg/L | = | 0.125 |

----------
compounds and their reported MIC K. pneumoniae 063
test system: Klebsiella pneumoniae; format: cell-based
Bridge positions count the residues as written; N and C are the ends. Square brackets hold non-standard residues; d marks the D form. Peptide text beside a SMILES is read from it. * marks the point of attachment. ξ: configuration not given here. dBip = N[C@H](Cc1ccc(-c2ccccc2)cc1)C(=O)O; Octanoyl(6-Me) = CCC(C)CCCCC(=O)*; X23 = NCC[C@H](OCc1ccccc1)C(=O)*; dCha = N[C@H](CC1CCCCC1)C(=O)O; Thr(3ξ) = CC(O)[C@H](N)C(=O)O; Dab = NCC[C@H](N)C(=O)O; Dap = NC[C@H](N)C(=O)O
measurement-name: MIC K. pneumoniae 063 (µg/mL)

| compound | experimental-value |
| --- | --- |
| CC(C)CC(CN)C(=O)N[C@H](C(=O)N[C@@H](CN)C(=O)N[C@H]1CCNC(=O)[C@H]([C@@H](C)O)NC(=O)[C@H](CCN)NC(=O)[C@H](CCN)NC(=O)[C@H](CC(C)C)NC(=O)[C@@H](Cc2ccc(Br)cc2)NC(=O)[C@H](CCN)NC1=O)C(C)O (single isomer, unassigned; isomer 2) [Example 14] | 64 |
| CCC(C)CCCCC(=O)N[C@@H](CCN)C(=O)N[C@H](C(=O)N[C@@H](CCN)C(=O)N[C@H]1CCNC(=O)[C@H]([C@@H](C)O)NC(=O)[C@H](CCN)NC(=O)[C@H](CCN)NC(=O)[C@H](CC(C)C)NC(=O)[C@@H](Cc2ccc(-c3ccccc3)cc2)NC(=O)[C@H](CCN)NC1=O)C(C)O (stereo partly drawn) [Example C3, reference compound] ({Octanoyl(6-Me)}-[Dab][Thr(3ξ)][Dab][Dab][Dab][dBip]L[Dab][Dab]T; lactam 4-C) | 8 |
| CC(C)C[C@@H]1NC(=O)[C@@H](CC2CCCCC2)NC(=O)[C@H](CCN)NC(=O)[C@@H](NC(=O)[C@H](CN)NC(=O)[C@@H](NC(=O)[C@H](CCN)OCc2ccccc2)C(C)O)CCNC(=O)[C@H]([C@@H](C)O)NC(=O)[C@H](CCN)NC(=O)[C@H](CCN)NC1=O (stereo partly drawn) [Example 48] (X23-[Thr(3ξ)][Dap][Dab][Dab][dCha]L[Dab][Dab]T; lactam 3-C) | 64 |

----------
Test system: Acinetobacter baumannii
Format: cell-based
Settings: strain 056
Protocol: To evaluate the potency and spectrum of the compounds, susceptibility testing was performed against up to nine strains of each of the Gram negative pathogens, Escherichia coli, Pseudomonas aeruginosa, Klebsiella pneumoniae and Acinetobacter baumannii. The values in Table 2 are MIC (μg/mL) against strains of E. coli, K. pneumoniae, P. aeruginosa and A. baumanii, including strains which show elevated MICs to Polymyxin. The values in Table 2A are MIC (μg/mL). […]

| molecule | tested-target | MIC A. baumanii 056 / µg/mL |
| --- | --- | --- |
| CC(C)C[C@@H]1NC(=O)[C@@H](CC2CCCCC2)NC(=O)[C@H](CCN)NC(=O)[C@@H](NC(=O)[C@H](CN)NC(=O)[C@@H](NC(=O)CC(CN)C2CCCCC2)C(C)O)CCNC(=O)[C@H]([C@@H](C)O)NC(=O)[C@H](CCN)NC(=O)[C@H](CCN)NC1=O (single isomer, unassigned; isomer 1) [Example 42] | Acinetobacter baumannii | 32 |
| CC(C)C[C@@H]1NC(=O)[C@@H](CC2CCCCC2)NC(=O)[C@H](CCN)NC(=O)[C@@H](NC(=O)[C@H](CN)NC(=O)[C@@H](NC(=O)CC(CN)C2CCCCC2)C(C)O)CCNC(=O)[C@H]([C@@H](C)O)NC(=O)[C@H](CCN)NC(=O)[C@H](CCN)NC1=O (single isomer, unassigned; isomer 2) [Example 43] | Acinetobacter baumannii | 32 |

----------
test system: Acinetobacter baumannii; format: cell-based; settings: strain 056
Bridge positions count the residues as written; N and C are the ends. Square brackets hold non-standard residues; d marks the D form. Peptide text beside a SMILES is read from it. * marks the point of attachment. ξ: configuration not given here. dCha = N[C@H](CC1CCCCC1)C(=O)O; Thr(3ξ) = CC(O)[C@H](N)C(=O)O; X7 = NCC(CC(=O)*)c1ccccc1; Dab = NCC[C@H](N)C(=O)O; Dap = NC[C@H](N)C(=O)O
// reported MIC A. baumanii 056 per item
measurement-name: MIC A. baumanii 056 (µg/mL)

| compound | measurement-name | experimental-value |
| --- | --- | --- |
| CC(C)C[C@@H]1NC(=O)[C@@H](CC2CCCCC2)NC(=O)[C@H](CCN)NC(=O)[C@@H](NC(=O)[C@H](CCN)NC(=O)[C@@H](NC(=O)CC(CN)Cc2ccccc2)[C@@H](C)O)CCNC(=O)[C@H]([C@@H](C)O)NC(=O)[C@H](CCN)NC(=O)[C@H](CCN)NC1=O (single isomer, unassigned; isomer 2) [Example 67] | MIC A. baumanii 056 | 16 |
| CC(C)C[C@@H]1NC(=O)[C@@H](CC2CCCCC2)NC(=O)[C@H](CCN)NC(=O)[C@@H](NC(=O)[C@H](CCN)NC(=O)[C@@H](NC(=O)CC(CN)C2CCCCC2)[C@@H](C)O)CCNC(=O)[C@H]([C@@H](C)O)NC(=O)[C@H](CCN)NC(=O)[C@H](CCN)NC1=O (single isomer, unassigned; isomer 1) [Example 86] | MIC A. baumanii 056 | 64 |
| CC(C)C[C@@H]1NC(=O)[C@@H](CC2CCCCC2)NC(=O)[C@H](CCN)NC(=O)[C@@H](NC(=O)[C@H](CN)NC(=O)[C@@H](NC(=O)CC(CN)c2ccccc2)C(C)O)CCNC(=O)[C@H]([C@@H](C)O)NC(=O)[C@H](CCN)NC(=O)[C@H](CCN)NC1=O (stereo partly drawn) [Example 39] (X7-[Thr(3ξ)][Dap][Dab][Dab][dCha]L[Dab][Dab]T; lactam 3-C) | MIC A. baumanii 056 | 64 |
